FYI, the data here is from ChEMBL document CHEMBL1201862.

target-system: Heat shock protein HSP 90-alpha (Homo sapiens)
Format: functional, organism-based
Active and inactive are the calls of the source.
measured-metric: AC50

Provide only the value of recorded AC50 for `COc1ccccc1OCCNC(=O)c1ccc(Br)cc1` 10.8 µM (active)

Provide only the value of recorded AC50 for O=C(CCc1ccccc1)NC(c1cccs1)c1cc(Cl)c2cccnc2c1O (centres undefined) 16.9 µM (active)

Provide only the value of recorded AC50 for `COc1ccc(C)cc1N=Nc1ccc(O)c2ncccc12` 1.57 µM (active)

Provide only the value of recorded AC50 for `COc1ccc(/C=C/C(=O)NC(=S)NNC(=O)c2cnccn2)cc1` 1.95 µM (active)

---

// values below are IC50; system is UniProt:Q92731
Sequence (Q92731 whole entry): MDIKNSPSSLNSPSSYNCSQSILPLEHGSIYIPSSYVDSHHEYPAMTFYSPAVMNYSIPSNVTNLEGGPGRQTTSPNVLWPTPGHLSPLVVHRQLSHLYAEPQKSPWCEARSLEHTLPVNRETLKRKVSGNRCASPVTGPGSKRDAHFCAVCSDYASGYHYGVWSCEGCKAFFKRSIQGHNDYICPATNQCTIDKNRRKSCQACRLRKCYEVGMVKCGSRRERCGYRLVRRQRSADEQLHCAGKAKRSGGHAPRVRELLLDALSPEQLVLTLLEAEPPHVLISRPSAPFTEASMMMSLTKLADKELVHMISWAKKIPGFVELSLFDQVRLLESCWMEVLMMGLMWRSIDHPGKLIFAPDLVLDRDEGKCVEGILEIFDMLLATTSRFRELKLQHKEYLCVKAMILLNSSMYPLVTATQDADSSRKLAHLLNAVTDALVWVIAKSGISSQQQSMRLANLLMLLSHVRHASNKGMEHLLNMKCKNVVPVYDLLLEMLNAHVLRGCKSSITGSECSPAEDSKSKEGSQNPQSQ
Activity calls are given as the source filed them.

Provide only the value of recorded IC50 for `Cc1ccc2c(Cl)cc(Cl)c(OCC(=O)NCc3ccco3)c2n1` < 1.56 µM (active)

Provide only the value of recorded IC50 for `C1=C(N2CCOCC2)/C(=C/c2nc3ccccc3[nH]2)CC1` 23.8 µM (active)

Provide only the value of recorded IC50 for `Cc1ccc(C(=O)ONc2ccc(N=NC(=O)c3ccccc3O)cc2)cc1` 8.2 µM (active)

Provide only the value of recorded IC50 for `CSc1ccccc1NC(=O)c1noc2c1CCC2` 3.77 µM (active)

Provide only the value of recorded IC50 for CN1CC2(C)CN(C(c3ccccc3)c3ccccc3)CC(C)(C1)C2O (stereo not given) > 50 µM (not active)

---

Tested on: H4
run-description: Luminescence Cell-Based Dose Response HTS to Identify Activators of 5'UTR Stem-Loop Driven Prion Protein mRNA Translation in H4 Neuroglioblastoma Cells. [Related pubchem assays: 1829 (Project Summary), 1814 (Primary HTS)]
Assay type: functional
assay-conditions: Homo sapiens
Active and inactive are the calls of the source.
measured-metric: EC50

Provide only the value of recorded EC50 for `CN1C2CCC1/C(=C\c1ccccc1)C(=O)/C2=C\c1ccccc1` > 120 µM (not active)

Provide only the value of recorded EC50 for Cn1ccnc1CN1CCCCC1C(=O)Nc1ccc(Oc2cccnc2)cc1 (stereo unspecified) > 120 µM (not active)

Provide only the value of recorded EC50 for `COc1ccc(/C=C/C(=O)NC(=S)N2CCN(c3ccccc3OC)CC2)cc1` 7.91 µM (active)

Provide only the value of recorded EC50 for `COc1ccc(Cl)c2c3n[nH]c(SCc4ccccn4)nc-3nc12` 25.2 µM (active)

Provide only the value of recorded EC50 for `Cc1nn(-c2ccccc2)c(Cl)c1/C=N\NC(=O)c1cnccn1` 15.3 µM (active)

Provide only the value of recorded EC50 for O=C(c1ccccc1)N1CCN2C(=O)c3ccccc3C12c1ccc(Cl)cc1 (stereo unspecified) 15.4 µM (active)

---

target-system: UniProt:P03070
Sequence (P03070 whole entry): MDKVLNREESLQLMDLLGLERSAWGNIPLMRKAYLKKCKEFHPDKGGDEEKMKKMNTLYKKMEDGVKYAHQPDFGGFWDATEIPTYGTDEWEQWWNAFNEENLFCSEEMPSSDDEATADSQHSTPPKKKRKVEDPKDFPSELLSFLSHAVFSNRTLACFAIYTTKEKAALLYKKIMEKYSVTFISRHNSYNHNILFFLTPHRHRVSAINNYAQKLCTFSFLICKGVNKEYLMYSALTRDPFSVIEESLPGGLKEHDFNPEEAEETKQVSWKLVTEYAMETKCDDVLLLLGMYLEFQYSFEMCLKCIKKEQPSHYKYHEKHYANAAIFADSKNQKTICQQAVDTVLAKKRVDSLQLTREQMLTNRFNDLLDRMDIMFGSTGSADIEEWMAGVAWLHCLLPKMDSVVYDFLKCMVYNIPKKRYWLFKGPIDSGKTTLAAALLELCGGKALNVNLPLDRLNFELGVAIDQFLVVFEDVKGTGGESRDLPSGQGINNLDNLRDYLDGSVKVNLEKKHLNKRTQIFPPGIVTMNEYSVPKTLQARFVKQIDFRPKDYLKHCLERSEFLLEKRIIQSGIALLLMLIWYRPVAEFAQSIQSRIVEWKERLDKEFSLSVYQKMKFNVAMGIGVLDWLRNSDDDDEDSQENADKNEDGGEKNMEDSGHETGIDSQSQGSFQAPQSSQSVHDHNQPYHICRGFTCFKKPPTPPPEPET
Format: functional, Betapolyomavirus macacae
Activity calls are given as the source filed them.
measured-metric: IC50

Provide only the value of recorded IC50 for CC(Nc1ccc(N2CCOCC2)cc1)C(=O)N1c2ccccc2CC1C (stereo not drawn) 21.1 µM (active)

Provide only the value of recorded IC50 for `COc1cc(/C=C2\SC(=S)N(NS(=O)(=O)c3ccc(C)cc3)C2=O)ccc1O` 10.1 µM (active)

Provide only the value of recorded IC50 for `CC(C)c1ccc(S(=O)(=O)N2CCN(CC(=O)c3ccc(O)c(O)c3)CC2)cc1` 23.6 µM (active)

Provide only the value of recorded IC50 for `NC(=O)c1ccc(N2CCN(c3ccc(O)cc3)CC2)c([N+](=O)[O-])c1` 8.31 µM (active)

Provide only the value of recorded IC50 for `O=C(/C=C/c1ccc(O)c(O)c1)O[C@@H]1C[C@](O)(C(=O)O)C[C@@H](O)[C@H]1O` 14.7 µM (active)

Provide only the value of recorded IC50 for `CCOc1cc(/C=N\NC(=O)Cn2nnc3ccccc32)ccc1O` 13.1 µM (active)

Provide only the value of recorded IC50 for O=C(O)COc1ccccc1C(Nc1cccnc1)c1cc(Cl)c2cccnc2c1O (stereo not drawn) 10.3 µM (active)

Provide only the value of recorded IC50 for `COc1cc(Cl)ccc1NC(=O)COc1ccccc1C(=O)N1CCN(c2ccc(O)cc2)CC1` 13.4 µM (active)
